- Tested on: HLA-A24
- Format: binding, human
Kindly state binding to HLA-A24 (column 6; no allele head shown for these rows) for each of the entries shown.

Read the entry AATSSSSPL and write its reported binding to HLA-A24 (column 6; no allele head shown for these rows).
<0.0002

Note binding to HLA-A24 (column 6; no allele head shown for these rows) for the sequence shown: EALEAQQEAL
0

Supply recorded binding to HLA-A24 (column 6; no allele head shown for these rows) for QAATSSSSPL here.
<0.0002

Supply binding to HLA-A24 (column 6; no allele head shown for these rows) value. Item: KVADLVGFL
0

Indicate its recorded binding to HLA-A24 (column 6; no allele head shown for these rows); the sequence in question is FLLLKYRA
0

Report binding to HLA-A24 (column 6; no allele head shown for these rows) for EAQQEALGL
<0.0002

Given KAEMLESVL , respond with its binding to HLA-A24 (column 6; no allele head shown for these rows).
0

Recall and state the measured binding to HLA-A24 (column 6; no allele head shown for these rows) for GASSFSTTI .
0.0002

Report binding to HLA-A24 (column 6; no allele head shown for these rows), nothing else, for this sequence: VAELVHFLL
0.039

Item RALAETSYV : provide binding to HLA-A24 (column 6; no allele head shown for these rows)
0

// Input: ALAETSYVK . Output its binding to HLA-A24 (column 6; no allele head shown for these rows) only.
0

Specify measured binding to HLA-A24 (column 6; no allele head shown for these rows) for GLVCVQAA .
0

Answer with the recorded binding to HLA-A24 (column 6; no allele head shown for these rows) of KMVELVHFL only.
0.0043

Name the recorded binding to HLA-A24 (column 6; no allele head shown for these rows) of the item GASAFPTTI in your answer.
<0.0002

Answer with the recorded binding to HLA-A24 (column 6; no allele head shown for these rows) of VLVTCLGL only.
0

// Input: LAETSYVKVL . Output its binding to HLA-A24 (column 6; no allele head shown for these rows) only.
<0.0002

# return recorded binding to HLA-A24 (column 6; no allele head shown for these rows) for entry AALSRKVAEL
0

Tell me binding to HLA-A24 (column 6; no allele head shown for these rows) reported for ALGLVCVQAA
0

Return the recorded binding to HLA-A24 (column 6; no allele head shown for these rows) value; entry: CILESCFRAVI
0.0008

Retrieve binding to HLA-A24 (column 6; no allele head shown for these rows) measured for FLWGPRALA and print it.
0

Input ETSYVKVLEY , output reported binding to HLA-A24 (column 6; no allele head shown for these rows).
0

----------
What IC50 was measured for each of the following?
- experimental-target: HLA-A*0201 (HLA-A2.1) (Homo sapiens, UniProt P04439, D140Y/D185E/D98H/E176V/E277Q/G131W/G231S/I119V/I121R/I166T/I218V/L300P/L318F/N151K/N90K/P208A/P217A/Q86G/Q94H/R138H/R169H/T345S)
- procedure-summary: biochemical
- Type: binding
No end group written: not given here.
Please reply with the bare figure in µM and do not write the unit itself.

Consider the sequence QQHTQELFV [Peptide 9013.0078] and give its recorded IC50.
2.48

Quote IC50 reported for RILQQLLLI [Peptide 1525.20] please.
0.199

Using the record for FIQGAVISFV [Peptide 1578.12] , state its measured IC50.
0.255

Let me know recorded IC50 for KLTFLCVTL [Peptide 1516.14] , thanks.
0.019

For the sequence TVELFIPNITV [Peptide 9013.0300] , give its reported IC50.
8.21

Consider the sequence LLLVHNLPQHV [Peptide 9013.0275] and give its recorded IC50.
4.82

Output measured IC50 for this item: TQELFIPNV [Peptide 9013.0059]
0.308
